The reader will find reported % Remaining at T120 values listed item by item below.
- TEST NAME: Plasma stability, beagle dog plasma (K2EDTA)
- Assay type: in vitro ADME
- EXPERIMENTAL PARAMETERS: beagle dog plasma, 2 μM, anti-coagulant K2-EDTA, 120 min
Structures can show the parent of a compound that is named as a salt.
Report only the number, with the unit % understood.

CNS(=O)(=O)Nc1cccc(Cc2c(CN(C)C)c3ccc(OC(=O)N(C)C)cc3oc2=O)c1F; 100.5
CNS(=O)(=O)Nc1cccc(Cc2c(CN(C)C)c3cc(F)c(OC(=O)N(C)C)cc3oc2=O)c1F; 90.1
CCS(=O)(=O)Nc1cccc(Cc2c(CN3CCNCC3)c3cc(Cl)c(OC(=O)N(C)C)cc3oc2=O)c1Cl [Compound 257, hydrochloride]; 100.9
CCN(C)Cc1c(Cc2cccc(NS(=O)(=O)NC)c2Cl)c(=O)oc2cc(OC(=O)N(C)C)ccc12; 104.1

Alright, here's another molecule for you.
Qu. Data request, read-out % Remaining at T120, for CCS(=O)(=O)Nc1cccc(Cc2c(CN(C)C)c3ccc(OC(=O)N(C)C)cc3oc2=O)c1F
Ans. 100.9

###

- TEST NAME: Plasma stability, beagle dog plasma (K2EDTA)
- Type: in vitro ADME
- EXPERIMENTAL PARAMETERS: pH 7.4; beagle dog plasma, 2 μM, anti-coagulant K2-EDTA; read-out: T1/2
Counter-ions that a name gives are not always drawn.
List of half-life at 2 μM values.

Qu. State the recorded half-life at 2 μM for this entry: CNS(=O)(=O)Nc1cccc(Cc2c(CN3CCNCC3)c3cc(Cl)c(OC(=O)N(C)C)cc3oc2=O)c1Cl [Compound 256, hydrochloride]
Ans. > 2 h

Qu. Return reported half-life at 2 μM; argument: CNS(=O)(=O)Nc1cccc(Cc2c(CN(C)C)c3ccc(OC(=O)N(C)C)cc3oc2=O)c1Cl
Ans. > 2 h

###

- TEST NAME: Plasma stability, cynomolgus monkey plasma (K2-EDTA)
- Format: in vitro ADME
- EXPERIMENTAL PARAMETERS: 2 μM, anti-coagulant K2-EDTA, 120 min
Structures can show the parent of a compound that is named as a salt.
Reported % Remaining at T120 values are given for each entry in this list.
Answer with a number only, understood to be in %.

Study these solved cases before continuing.
CNS(=O)(=O)Nc1cccc(Cc2c(CN(C)C)c3cc(F)c(OC(=O)N(C)C)cc3oc2=O)c1F [Compound 25]; 107.3
CNS(=O)(=O)Nc1cccc(Cc2c(CN3CCNCC3)c3cc(Cl)c(OC(=O)N(C)C)cc3oc2=O)c1Cl [Compound 256, hydrochloride]; 95.0
CCS(=O)(=O)Nc1cccc(Cc2c(CN(C)C)c3ccc(OC(=O)N(C)C)cc3oc2=O)c1F [Compound 120]; 107.3

Attention now shifts to the item below.
Qu. For the compound CNS(=O)(=O)Nc1cccc(Cc2c(CN(C)C)c3ccc(OC(=O)N(C)C)cc3oc2=O)c1F [Compound 9] , what % Remaining at T120 is on record?
Ans. 110.4

###

- TEST NAME: Plasma stability, human plasma (K2EDTA)
- Type: in vitro ADME
- EXPERIMENTAL PARAMETERS: human plasma, 2 μM, anti-coagulant K2-EDTA, 10 to 120 min
PARAMETER: T1/2

Below, 3 molecules whose answers are already recorded.
CCS(=O)(=O)Nc1cccc(Cc2c(CN(C)C)c3ccc(OC(=O)N(C)C)cc3oc2=O)c1F; >2 h
CNS(=O)(=O)Nc1cccc(Cc2c(CN(C)C)c3ccc(OC(=O)N(C)C)cc3oc2=O)c1F; >2 h
CCCS(=O)(=O)Nc1cccc(Cc2c(CN3CCNCC3)c3cc(Cl)c(OC(=O)N(C)C)cc3oc2=O)c1F; 15.8 h

Qu. Looking for the measured T1/2 of CNS(=O)(=O)Nc1cccc(Cc2c(CN3CCNCC3)c3cc(F)c(OC(=O)N(C)C)cc3oc2=O)c1F , can you help?
Ans. >2 h

Qu. Recorded T1/2 for CNS(=O)(=O)Nc1nccc(Cc2c(CN(C)C)c3ccc(OC(=O)N(C)C)cc3oc2=O)c1F , please?
Ans. 10.5 h

Qu. # lookup: T1/2 of CNS(=O)(=O)Nc1cccc(Cc2c(CN(C)C)c3cc(F)c(OC(=O)N(C)C)cc3oc2=O)c1F
Ans. >2 h

# credit: patent US20250179057A1
